Hello, the source for this data is patent US11584747B2, in case you need it.

Please respond with reported IC50 for every item in the list.
target: human DGKζ (Homo sapiens (Human), UniProt Q13574); assay: DGKζ LIPGLO assay (extruded liposome substrate, ADP-Glo luminescence); assay type: biochemical; settings: liposome (LIPGLO) assay; read-out: DGK zeta (liposome assay) IC50
Sequence (Q13574 other isoform, or with tags, fused parts or gaps): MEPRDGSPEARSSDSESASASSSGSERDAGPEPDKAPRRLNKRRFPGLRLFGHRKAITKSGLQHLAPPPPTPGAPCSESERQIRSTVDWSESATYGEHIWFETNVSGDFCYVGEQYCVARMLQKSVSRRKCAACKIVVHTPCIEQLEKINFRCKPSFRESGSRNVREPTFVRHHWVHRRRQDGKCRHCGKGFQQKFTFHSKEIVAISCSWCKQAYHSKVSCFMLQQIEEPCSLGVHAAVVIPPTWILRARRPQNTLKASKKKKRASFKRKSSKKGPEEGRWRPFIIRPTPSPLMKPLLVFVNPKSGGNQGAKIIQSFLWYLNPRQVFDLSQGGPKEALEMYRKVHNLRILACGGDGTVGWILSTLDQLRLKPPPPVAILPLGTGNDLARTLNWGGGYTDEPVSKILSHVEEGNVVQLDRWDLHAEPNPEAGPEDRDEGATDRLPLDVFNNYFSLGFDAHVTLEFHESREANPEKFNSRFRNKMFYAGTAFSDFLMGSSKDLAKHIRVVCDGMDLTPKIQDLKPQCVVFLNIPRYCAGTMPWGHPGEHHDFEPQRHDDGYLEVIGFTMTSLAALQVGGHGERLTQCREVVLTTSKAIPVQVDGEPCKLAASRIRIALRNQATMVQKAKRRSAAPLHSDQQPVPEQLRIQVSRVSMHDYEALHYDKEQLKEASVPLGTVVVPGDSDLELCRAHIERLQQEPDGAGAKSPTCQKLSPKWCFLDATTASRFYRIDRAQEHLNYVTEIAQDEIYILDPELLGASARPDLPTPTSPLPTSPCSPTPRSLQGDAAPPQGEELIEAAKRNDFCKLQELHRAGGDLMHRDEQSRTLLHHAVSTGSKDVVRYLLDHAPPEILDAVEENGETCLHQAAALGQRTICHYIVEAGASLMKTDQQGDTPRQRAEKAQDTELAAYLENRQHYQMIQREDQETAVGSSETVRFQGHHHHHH
I'd appreciate it if you wrote the number followed by its unit.

1. CC(c1ccc(CN2CC3(COC3)C2)cc1)N1C[C@H](C)N(c2nc(=O)n(C)c3ccc(C#N)nc23)C[C@H]1C (some centres unmarked) [Example 393] :: 125000 nM

For each entry beneath this line, provide reported IC50.
1. CCC1CN(c2nc(=O)n(C)c3ccc(C#N)nc23)[C@@H](C)CN1C(C)c1ccc(C(F)(F)F)c(CN2CCOCC2)c1 (single isomer, unassigned) [Example 351]
2. CC(c1ccc(CN2C[C@@H]3C[C@H]2CO3)cc1)N1C[C@H](C)N(c2nc(=O)n(C)c3ccc(C#N)nc23)C[C@H]1C (some centres unmarked) [Example 388]
3. CC[C@@H]1CN(c2nc(=O)n(C)c3ccc(C#N)nc23)[C@@H](CO)CN1C(C)c1ccc(C(F)(F)F)cc1 (single isomer, unassigned) [Example 412]
4. CC[C@@H]1CN(c2nc(=O)n(C)c3ccc(C#N)nc23)[C@@H](C)CN1C(C)c1ccc(C2CCOCC2)cc1 (some centres unmarked) [Example 329]
5. CC[C@@H]1CN(c2nc(=O)n(C)c3ccc(C(F)F)nc23)[C@@H](C)CN1C(C)c1ccc(C(F)(F)F)cc1 (some centres unmarked) [Example 441]

Data returned:
1040 nM
45700 nM
45000 nM
740 nM
26900 nM

For each entry beneath this line, provide reported IC50.
1. CCC(c1ccc(OC)cc1)N1C[C@H](C)N(c2nc(=O)n(C)c3ccc(C#N)nc23)C[C@H]1CC (some centres unmarked) [Example 305]
2. CCC(c1ccc(OC(C)C)cc1)N1C[C@H](C)N(c2nc(=O)n(C)c3ccc(C#N)nc23)C[C@H]1CC (some centres unmarked) [Example 334]
3. CC[C@@H]1CN(c2nc(=O)n(C)c3ccc(C#N)nc23)[C@@H](C)CN1C(c1nnc(C2CC2)o1)C(C)C (single isomer, unassigned) [Example 368]
4. COC[C@H]1CN(C(C)c2ccc(C(F)(F)F)cc2)[C@H](C)CN1c1nc(=O)n(C)c2ccc(C#N)nc12 (single isomer, unassigned) [Example 409]
5. CCC(c1ccc(C2CC2)cc1)N1C[C@H](C)N(c2nc(=O)n(C)c3ccc(C#N)nc23)C[C@H]1C (some centres unmarked) [Example 379]
6. CCC(N1C[C@H](C)N(c2nc(=O)n(C)c3ccc(C#N)nc23)C[C@H]1C)C12CC(C(F)(F)F)(C1)C2 (single isomer, unassigned) [Example 449]
7. CC[C@@H]1CN(c2nc(=O)n(C)c3ccc(C#N)nc23)[C@@H](C)CN1C(C)c1ccc(C(F)(F)F)c(C#N)c1 (single isomer, unassigned) [Example 357]

Data returned:
1400 nM
530 nM
2250 nM
1080 nM
3600 nM
4080 nM
1560 nM

For each entry beneath this line, provide reported IC50.
1. CCC(C1CC(F)(F)C1)N1C[C@H](C)N(c2nc(=O)n(C)c3ccc(C#N)nc23)C[C@H]1C (some centres unmarked) [Example 456]
2. CCC(c1ccc(OCc2nccs2)cc1)N1C[C@H](C)N(c2nc(=O)n(C)c3ccc(C#N)nc23)C[C@H]1CC (some centres unmarked) [Example 348]

Data returned:
12100 nM
45 nM

For each entry beneath this line, provide reported IC50.
1. CCC(c1ccc(C(F)(F)F)cc1)N1C[C@H](CC)N(c2nc(=O)n(C)c3ccc(OC)nc23)C[C@H]1CC (some centres unmarked) [Example 435]
2. CC[C@H]1CN(C(c2ccc(F)cc2)c2noc(C3CC3)n2)[C@H](CC)CN1c1nc(=O)n(C)c2ccc(C#N)nc12 (single isomer, unassigned) [Example 372]
3. CCC(c1ccc(F)c(F)c1)N1C[C@H](C)N(c2nc(=O)n(C)c3ccc(C#N)nc23)C[C@H]1CC (some centres unmarked) [Example 320]
4. CC[C@@H]1CN(c2nc(=O)n(C)c3ccc(C#N)nc23)[C@@H](C)CN1C(c1ccc(OC)cc1)C(C)C (some centres unmarked) [Example 314]
5. CCC(c1ccc(C(F)(F)F)cc1)N1C[C@H](CC)N(c2nc(=O)[nH]c3ccc(C#N)nc23)C[C@H]1CC (some centres unmarked) [Example 415]
6. CCC(c1ccc(C(C)(C)C#N)cc1)N1C[C@H](C)N(c2nc(=O)n(C)c3ccc(C#N)nc23)C[C@H]1CC (some centres unmarked) [Example 318]

Data returned:
1. 5510 nM
2. 43 nM
3. 620 nM
4. 4 nM
5. 61900 nM
6. 1570 nM

----------
Please respond with reported pIC50 for every item in the list.
target: human DGKζ (Homo sapiens (Human), UniProt Q13574); assay: DGKζ LIPGLO assay (extruded liposome substrate, ADP-Glo luminescence); type: biochemical; conditions: liposome assay; read-out: DGK zeta LIPGLO IC50
One number for each entry, as −log10 of the molar value.

1. CC[C@H]1CN(C(C)c2cccc(OC)n2)[C@H](CC)CN1c1nc(=O)n(C)c2ccc(C#N)nc12 (stereo partly drawn) [Example 215] :: 6.96
2. [2H]C([2H])([2H])Oc1ccc(C(CC)N2C[C@H](CC)N(c3nc(=O)n(C)c4ccc(C#N)nc34)C[C@H]2CC)cc1 (single isomer, unassigned) [Example 208] :: 7.11
3. CC[C@H]1CN(C(C)c2ccc(OCC3CC3)cc2)[C@H](CC)CN1c1nc(=O)n(C)c2ccc(C#N)nc12 (single isomer, unassigned) [Example 23] :: 7.54
4. CC(c1ccc(Cl)cc1F)N1C[C@H](C)N(c2nc(=O)n(C)c3ccc(C#N)nc23)C[C@H]1C (single isomer, unassigned) [Example 146] :: 7.36
5. CC[C@@H]1CN(c2nc(=O)n(C)c3ccc(C#N)nc23)[C@@H](C)CN1C(c1ccc(F)cc1)c1ccc(C2CC2)cn1 (single isomer, unassigned) [Example 75] :: 7.48

API: the following record is the query input.
Data request: State its pIC50: CC[C@H]1CN(C(C)c2ccc(CN3CCCCC3)cc2)[C@H](CC)CN1c1nc(=O)n(C)c2ccc(C#N)nc12 (stereo partly drawn) [Example 281]
Data returned: 4.36

----------
Please respond with reported log10 of IC50 for every item in the list.
biological target: human DGKα (Homo sapiens (Human)); test: DGKα LIPGLO assay (extruded liposome substrate, ADP-Glo luminescence); format: biochemical; conditions: liposome assay; read-out: DGK alpha LIPGLO IC50
Scale type: logarithmic (base 10). Underlying IC50 unit: nM.

Please review the entries below; each comes with its answer.
1) CC(C)c1ccc(CN2C[C@H](C)N(c3nc(=O)n(C)c4ccc(C#N)nc34)C[C@H]2C)cc1 :: 1.92
2) CC[C@H]1CN(C(C)c2ccc(C3CC3)cc2F)[C@H](CC)CN1c1nc(=O)n(C)c2ccc(C#N)nc12 (single isomer, unassigned) [Example 41] :: 3.36
3) CC[C@H]1CN(C(C)c2ccc(OC(F)(F)F)c(F)c2)[C@H](CC)CN1c1nc(=O)n(C)c2ccc(C#N)nc12 (single isomer, unassigned) [Example 30] :: 1.88

For each entry beneath this line, provide reported log10 of IC50.
1. CC[C@@H]1CN(c2nc(=O)n(C)c3ccc(C#N)nc23)[C@@H](C)CN1C(c1ccc(F)cc1)c1ccon1 (single isomer, unassigned) [Example 74]
2. CCC(c1ccc(OC(F)(F)F)cc1F)N1C[C@H](C)N(c2nc(=O)n(C)c3ccc(C#N)nc23)C[C@H]1C (single isomer, unassigned) [Example 152]
3. CC(c1ccc(OC(F)F)cc1)N1C[C@H](C)N(c2nc(=O)n(C)c3ccc(C#N)nc23)C[C@H]1C (single isomer, unassigned) [Example 156]

Data returned:
2.40
1.46
1.00

----------
Please respond with reported IC50 for every item in the list.
molecular target: human DGKα (Homo sapiens (Human), UniProt P23743); assay: DGKα LIPGLO assay (extruded liposome substrate, ADP-Glo luminescence); type: biochemical; conditions: liposome assay; read-out: DGK alpha LIPGLO IC50
Sequence (P23743 whole entry, looked up): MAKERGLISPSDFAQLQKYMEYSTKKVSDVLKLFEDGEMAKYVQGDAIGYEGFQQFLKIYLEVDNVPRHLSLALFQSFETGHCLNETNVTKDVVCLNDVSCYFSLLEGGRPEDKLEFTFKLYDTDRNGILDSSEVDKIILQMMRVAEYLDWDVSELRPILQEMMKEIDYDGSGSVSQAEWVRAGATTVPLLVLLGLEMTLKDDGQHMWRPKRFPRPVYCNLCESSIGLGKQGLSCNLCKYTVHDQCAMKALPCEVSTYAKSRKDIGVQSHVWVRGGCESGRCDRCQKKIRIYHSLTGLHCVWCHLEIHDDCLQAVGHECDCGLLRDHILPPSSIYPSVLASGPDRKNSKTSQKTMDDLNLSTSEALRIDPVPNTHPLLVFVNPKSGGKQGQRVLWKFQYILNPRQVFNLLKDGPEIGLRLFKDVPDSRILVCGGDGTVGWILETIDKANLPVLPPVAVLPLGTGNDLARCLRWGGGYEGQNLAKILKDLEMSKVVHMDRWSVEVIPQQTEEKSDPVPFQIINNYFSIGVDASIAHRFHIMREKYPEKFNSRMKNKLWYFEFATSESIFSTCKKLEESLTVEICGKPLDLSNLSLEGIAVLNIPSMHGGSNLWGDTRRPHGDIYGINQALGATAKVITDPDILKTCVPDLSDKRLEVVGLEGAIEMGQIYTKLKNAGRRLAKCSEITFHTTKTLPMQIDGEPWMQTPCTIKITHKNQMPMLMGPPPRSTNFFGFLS
I'd appreciate it if you wrote the number followed by its unit.

1. CC(c1ccc(F)cc1F)N1C[C@H](C)N(c2nc(=O)n(C)c3ccc(C#N)nc23)C[C@H]1C (single isomer, unassigned) [Example 144] :: 28 nM
2. CC[C@@H]1CN(c2nc(=O)n(C)c3ccc(C#N)nc23)[C@@H](C)CN1C(c1ccc(F)cc1)c1ccccn1 (single isomer, unassigned) [Example 88] :: 110 nM
3. CCC(c1ccc2c(c1)OC(F)(F)O2)N1C[C@H](C)N(c2nc(=O)n(C)c3ccc(C#N)nc23)C[C@H]1CC (single isomer, unassigned) [Example 79] :: 300 nM

For each entry beneath this line, provide reported IC50.
1. COC[C@@H]1CN(c2nc(=O)n(C)c3ccc(C#N)nc23)[C@@H](C)CN1C(C)c1ccc(OC(F)(F)F)cc1 (single isomer, unassigned) [Example 177]
2. CC(c1cc(F)c(F)c(F)c1)N1C[C@H](C)N(c2nc(=O)n(C)c3ccc(C#N)nc23)C[C@H]1C (single isomer, unassigned) [Example 139]
3. CC[C@@H]1CN(c2nc(=O)n(C)c3ccc(C#N)nc23)[C@@H](C)CN1C(C)c1ccc(OC)cc1 (single isomer, unassigned) [Example 56]
4. CC[C@@H]1CN(c2nc(=O)n(C)c3ccc(C#N)nc23)[C@@H](C)CN1C(c1ccc(F)cc1)c1cnc(C2CC2)s1 (single isomer, unassigned) [Example 104]
5. CC[C@@H]1CN(c2nc(=O)n(C)c3ccc(C#N)nc23)[C@@H](C)CN1C(C)c1ccc(OCC2CC2)cc1 (single isomer, unassigned) [Example 68]
6. CC[C@H]1CN(C(C)c2ccc(C(F)(F)F)cc2)[C@H](CC)CN1c1nc(=O)n(C)c2ccc(C#N)nc12 (single isomer, unassigned) [Example 20]
7. CC[C@H]1CN(C(C)c2ccc3c(c2)OC(F)(F)O3)[C@H](CC)CN1c1nc(=O)n(C)c2ccc(C#N)nc12 (single isomer, unassigned) [Example 15]

Data returned:
["610 nM", "25600 nM", "37 nM", "470 nM", "1630 nM", "140 nM", "490 nM"]

Data request: State its IC50: CC[C@H]1CN(C(c2ccc(F)cc2)c2nc(C3CC3)nn2C)[C@H](CC)CN1c1nc(=O)n(C)c2ccc(C#N)nc12 (single isomer, unassigned) [Example 295]
Data returned: 7230 nM
